# assay target: T1, human HIF-1α PAS-B (238-349), recombinant, His-tagged (human, UniProt Q16665 238-349, labelled with Monolith NT-647 dye for MST)
# T1 construct: range 238-349; Expressed in E. coli BL21(DE3)-Rosetta from pET28a; also called HIF-1α PAS-B domain; PAS-B domain of HIF-1α; not shown: His tag from pET28a vector (BamHI/SacI cloning)
# T1 sequence (Q16665 238-349): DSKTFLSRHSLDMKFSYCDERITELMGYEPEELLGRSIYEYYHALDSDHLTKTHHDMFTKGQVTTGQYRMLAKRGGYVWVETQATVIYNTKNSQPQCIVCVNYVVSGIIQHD
# test: MST, peptide titrated against labelled HIF-1α PAS-B [bottom panel]
quantity measured: Kd (µM)
Write the value in µM as a bare number.

[Q] Fill in reported Kd for this entry: CRVIIF (head-to-tail cyclic (cyclo-), also called CRVIIF; cyclic peptide #3) [cyclo-cys arg val ile ile phe]
[A] 65.5

src = patent US20240270793A1
